Observation Type: melting point

Cc1c(/C=N/OCc2ccc(C(=O)O)c(Br)c2)c2ccccc2n1C = 165 to 166 °C
O=C(O)c1ccc(OCCCO/N=C/c2cn(Cc3ccccc3)c3ccccc23)c(-c2ccc(C(F)(F)F)cc2)c1 = 193 to 194 °C
O=C(O)c1ccc(OCCCO/N=C/c2cc3ccccc3n2Cc2ccccc2)cc1O = 175 to 176 °C (dec.)

Query: Record request: melting point value, item `O=C(O)c1ccc(OCCCO/N=C/c2cc3ccccc3n2Cc2ccccc2)c(-c2ccc(C(F)(F)F)cc2)c1`
Result: 196 to 197 °C

Query: Moving on to the next compound: `O=C(O)c1ccc(CO/N=C/c2cc3ccccc3n2Cc2ccccc2)cc1Br`
Result: 148 to 149 °C
